TARGET OR SYSTEM: 5-hydroxytryptamine receptor 2A (Mus musculus) (UniProt P35363)
Sequence (P35363 whole entry, looked up): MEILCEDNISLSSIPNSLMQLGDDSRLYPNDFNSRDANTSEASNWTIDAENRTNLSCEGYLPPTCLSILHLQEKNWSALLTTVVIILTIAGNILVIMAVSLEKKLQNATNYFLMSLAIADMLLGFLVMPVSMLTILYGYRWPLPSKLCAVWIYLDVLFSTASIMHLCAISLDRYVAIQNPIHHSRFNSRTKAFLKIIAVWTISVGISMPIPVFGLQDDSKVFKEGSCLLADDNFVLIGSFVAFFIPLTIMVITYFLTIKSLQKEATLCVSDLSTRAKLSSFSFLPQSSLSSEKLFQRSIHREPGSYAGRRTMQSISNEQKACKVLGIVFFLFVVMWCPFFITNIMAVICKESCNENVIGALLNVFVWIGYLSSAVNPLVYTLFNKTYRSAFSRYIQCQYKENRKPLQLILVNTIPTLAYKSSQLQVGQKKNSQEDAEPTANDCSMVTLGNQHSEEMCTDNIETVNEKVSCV
EXPERIMENT: mouse Htr2a agonists via beta-arrestin recruitment, primary screen, cell-based, luminescence (AID 624169);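 further: 0% = plate median of compound wells and 100% = 30 µM serotonin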
CONDITIONS USED: CHO-K1 mHTR2A beta-arrestin complementation, at 7.6 µM, hits give high values, percent of 30 µM serotonin response
Among all 360,000 compounds or so, about 2,400 (0.67%) were called active. The sample holds actives, similar compounds and a random draw of the others, so the mix is not that of the screen.
MEASURED ATTRIBUTE: activation (%)

compound=Cc1cc(NC(=O)/C=C/C(=O)N(CC(=O)NC2CCCC2)c2ccc(F)cc2)no1 measured_attribute=activation experimental_result=5.36
compound=O=C(COC(=O)/C=C/c1cccc(Cl)c1)NCCc1ccccc1 measured_attribute=activation experimental_result=-2.95
compound=CC(=O)Oc1ccc2c(=O)oc(-c3ccc([N+](=O)[O-])cc3)nc2c1 measured_attribute=activation experimental_result=6.81
compound=COc1cc(NC(=O)C2CCN(c3cnccn3)CC2)cc(OC)c1 measured_attribute=activation experimental_result=-2.92
compound=O=C1CCCC(O)=C1C=NCCc1ccccc1 measured_attribute=activation experimental_result=2.15
compound=Cn1c(=NC(=O)c2ccco2)sc2cccc(F)c21 measured_attribute=activation experimental_result=2.52
compound=COc1cc(NC(=O)COC(=O)c2cc(S(=O)(=O)N3CCOCC3)ccc2F)cc(OC)c1 measured_attribute=activation experimental_result=2.06
compound=COC(=O)c1ccc(CSc2nnc(NC(C)C)s2)cc1 measured_attribute=activation experimental_result=16
compound=CC(C)Oc1ccc(Cc2n[nH]c(=S)n2Cc2ccccc2)cc1Cl measured_attribute=activation experimental_result=0.66
compound=Cn1c(=NC(=O)c2cnccn2)sc2ccccc21 measured_attribute=activation experimental_result=-2.18
compound=CCCNC(=O)CCn1nc(-c2ccccc2)c2ccccc2c1=O measured_attribute=activation experimental_result=5.25
compound=Cc1c(C(=O)NCC2CC2)sc(=O)n1Cc1cccc(F)c1 measured_attribute=activation experimental_result=15
compound="CCOP(=O)(OCC)C(Nc1ccc([N+](=O)[O-])cc1)c1ccc(Cl)cc1 (stereo not given)" measured_attribute=activation experimental_result=-5.36
compound="N#Cc1c(NC(=O)C2CCCO2)sc2c1CCCCC2 (stereo not given)" measured_attribute=activation experimental_result=0.23
compound="N#Cc1c(NC(=O)C2CC(Cl)=CCC2C(=O)O)sc2c1CCCCC2 (stereo not given)" measured_attribute=activation experimental_result=5.86
compound=COc1ccccc1CNC(=O)Cn1c(=O)oc2cc(Cl)ccc21 measured_attribute=activation experimental_result=-2.35
compound=Cc1ccc(Cc2c(C)nc3nc(SCC(=O)NCCN4CCOCC4)nn3c2C)cc1 measured_attribute=activation experimental_result=-7.66
compound=CCCOc1ccc(CNC(=O)C2CCN(c3nn4c(=O)cc(C)nc4s3)CC2)cc1 measured_attribute=activation experimental_result=11
compound=NNc1cccc(C=Cc2ccccc2)cc1=O measured_attribute=activation experimental_result=15.7
compound=O=C(c1cccs1)N1CCN(Cc2ccc3c(c2)OCO3)CC1 measured_attribute=activation experimental_result=25.9
compound=O=C(CCCN1C(=O)c2cccc3cccc(c23)C1=O)N1CCN(Cc2ccc3c(c2)OCO3)CC1 measured_attribute=activation experimental_result=-3.63
compound=CCN(CCCNC(=O)CCn1c(=O)[nH]c2ccsc2c1=O)c1ccccc1 measured_attribute=activation experimental_result=2.47
compound=CC(=O)OCCOCn1cnn2c(=O)c(Br)c(C)nc12 measured_attribute=activation experimental_result=1.26
compound=Cc1ccc(NC(=O)CSc2nnc(COc3ccccc3C)o2)cc1 measured_attribute=activation experimental_result=40.1
compound="CCOc1ccc(CN(Cc2ccco2)C(c2cccs2)c2nnnn2C(C)(C)C)cc1 (stereo not given)" measured_attribute=activation experimental_result=6.56
compound=Cc1ccc2cc(CCNC(=O)c3ccc4c(c3)OCO4)c(=O)[nH]c2c1 measured_attribute=activation experimental_result=5.29
compound=Cc1ccc(NC(=O)CSc2nnc(CNC(=O)c3ccccc3F)o2)cc1 measured_attribute=activation experimental_result=-0.39
compound=COC(=O)Cn1nc(-c2ccccc2)c2cc(Cl)ccc21 measured_attribute=activation experimental_result=18.3
compound=CCCNS(=O)(=O)c1ccc(CCC(=O)N2CCCC2)cc1 measured_attribute=activation experimental_result=0.26
compound=O=C(COc1ccc2c(c1)CCC2)N1CCN(c2ccc(F)cc2)CC1 measured_attribute=activation experimental_result=-4.42
compound=O=C1C=C(c2cccc(Cl)c2)C[C@@H](c2ccc(F)cc2)C1 measured_attribute=activation experimental_result=-0.66
compound="O=C1C2N=NN(CC(=O)N3N=C(c4cccc5ccccc45)CC3c3ccccc3)C2C(=O)N1c1ccccc1 (stereo not given)" measured_attribute=activation experimental_result=2.13
compound=COc1cc2sc(C)nc2cc1C measured_attribute=activation experimental_result=-1.33
compound=O=C(OCCOc1ccccc1F)c1cc(S(=O)(=O)N2CCOCC2)ccc1F measured_attribute=activation experimental_result=-6.59
compound=CC(C)COC(=O)n1c(=O)oc2ccc(S(=O)(=O)N3CCCCC3)cc21 measured_attribute=activation experimental_result=0.93
compound=Nc1c(N(Cc2ccco2)C(=O)c2cccc(F)c2)c(=O)[nH]c(=O)n1Cc1ccccc1 measured_attribute=activation experimental_result=16.4
compound=Cc1cccc(CNC(=O)c2sc(=O)n(Cc3ccccc3C)c2C)c1 measured_attribute=activation experimental_result=-9.77
compound="CC(=O)N1c2ccc(S(=O)(=O)N3CCC(C(=O)NC4CCCCC4C)CC3)cc2CC1C (stereo not given)" measured_attribute=activation experimental_result=15.7
compound=CCOC(=O)[C@]12CCCC=C1N(CCC1=CCCCC1)C(=O)[C@H](CC(=O)NCCCCc1ccccc1)C2 measured_attribute=activation experimental_result=3.93
compound="Oc1ccccc1C1=NN(c2ccccc2)C(c2ccccc2)C1 (stereo not given)" measured_attribute=activation experimental_result=5.22
compound=O=C(CNC(=O)c1cc(=O)[nH]c2ccccc12)Nc1ccc(F)c(F)c1 measured_attribute=activation experimental_result=-0.64
compound=COC(=O)c1ccc(CSc2nncn2N)cc1 measured_attribute=activation experimental_result=-0.96
compound="CCCCC(CC)CNC(=O)CCCCn1c(=O)[nH]c2ccsc2c1=O (stereo not given)" measured_attribute=activation experimental_result=15.6
compound=Cc1cc(OCCN2CCCC2)cc(C(C)C)c1 measured_attribute=activation experimental_result=-5.99
compound=Cc1ccc(CCNC(=O)CN2C(=O)CSc3ccc(S(=O)(=O)N4CCOCC4)cc32)cc1 measured_attribute=activation experimental_result=-3.24
